Experiment description: Toxicity in human Erythrocyte assessed as concentration required to achieve 3% hemolysis
Format: cell-based
Where a SMILES comes first, the peptide text is derived from it. Bridges are numbered along the chain shown (N, C = ends).
Measurement name: Activity (µg/mL)
The figure you give is taken to be in µg/mL; do not add the unit.

CC[C@H](C)[C@@H]1NC(=O)C2CSSCC(NC(=O)[C@H](CCCNC(=N)N)NC(=O)[C@@H]3CSSC[C@H](NC1=O)C(=O)N[C@@H]([C@@H](C)O)C(=O)N[C@@H](CCCNC(=N)N)C(=O)NCC(=O)N[C@@H](Cc1ccccc1)C(=O)N3)C(=O)N[C@@H]([C@@H](C)CC)C(=O)N[C@H]1CSSC[C@H](NC(=O)[C@H](Cc3ccccc3)NC(=O)CNC(=O)[C@H](CCCNC(=N)N)NC(=O)[C@H]([C@@H](C)O)NC1=O)C(=O)N[C@@H](CCCNC(=N)N)C(=O)N2 (single isomer, unassigned): 21

The measured Activity associated with CC[C@H](C)[C@@H]1NC(=O)[C@@H]2CSSC[C@H](NC(=O)[C@H](CCCNC(=N)N)NC(=O)[C@@H]3CSSC[C@H](NC1=O)C(=O)N[C@@H]([C@@H](C)O)C(=O)N[C@@H](CCCNC(=N)N)C(=O)NCC(=O)N[C@@H](Cc1ccccc1)C(=O)N3)C(=O)N[C@@H](CC(C)C)C(=O)N[C@H]1CSSC[C@H](NC(=O)[C@H](C(C)C)NC(=O)CNC(=O)[C@H](CCCNC(=N)N)NC(=O)[C@H](CCCNC(=N)N)NC1=O)C(=O)N[C@@H](CCCNC(=N)N)C(=O)N2 reads 5.5

Kindly note the recorded Activity for CC(C)C[C@H](NC(=O)[C@H](CCCNC(=N)N)NC(=O)CNC(=O)CNC(=O)[C@@H](N)CCCNC(=N)N)C(=O)N[C@H]1CSSC[C@@H](C(=O)N[C@H](C(=O)NCC(=O)N[C@@H](CCCNC(=N)N)C(N)=O)C(C)C)NC(=O)[C@H](C(C)C)NC(=O)[C@@H]2CSSC[C@H](NC(=O)[C@H](Cc3ccc(O)cc3)NC1=O)C(=O)N[C@@H](CCCNC(=N)N)C(=O)N[C@@H](CCCNC(=N)N)C(=O)N[C@@H](CCCNC(=N)N)C(=O)N[C@@H](Cc1ccccc1)C(=O)N2 , which is 0.8

Field Activity (entry CC(C)C[C@@H]1NC(=O)[C@@H]2CSSC[C@H](NC(=O)[C@H](CCCNC(=N)N)NC(=O)[C@@H]3CSSC[C@H](NC1=O)C(=O)N[C@@H](CCCNC(=N)N)C(=O)N[C@@H](CCCNC(=N)N)C(=O)NCC(=O)N[C@@H](C(C)C)C(=O)N3)C(=O)N[C@@H](CC(C)C)C(=O)N[C@H]1CSSC[C@H](NC(=O)[C@H](C(C)C)NC(=O)CNC(=O)[C@H](CCCNC(=N)N)NC(=O)[C@H](CCCNC(=N)N)NC1=O)C(=O)N[C@@H](CCCNC(=N)N)C(=O)N2 (cyclo(CLCRRGVCRCLCRRGVCR); disulfide 1-10, 3-8, 12-17) ) reads 6.2

----------
System: Escherichia coli
Experiment description: Microbicidal activity against Escherichia coli ML35 assessed as induction of cytoplasmic membrane permeabilization at 1 ug/ml
Format: functional, organism-based
Active and inactive are the calls of the source. No cut-off for these calls is given here.
Choose one outcome from this list and give only that: Y (active), N (inactive)

CC[C@H](C)[C@@H]1NC(=O)C2CSSCC(NC(=O)[C@H](CCCNC(=N)N)NC(=O)[C@@H]3CSSC[C@H](NC1=O)C(=O)N[C@@H]([C@@H](C)O)C(=O)N[C@@H](CCCNC(=N)N)C(=O)NCC(=O)N[C@@H](Cc1ccccc1)C(=O)N3)C(=O)N[C@@H]([C@@H](C)CC)C(=O)N[C@H]1CSSC[C@H](NC(=O)[C@H](Cc3ccccc3)NC(=O)CNC(=O)[C@H](CCCNC(=N)N)NC(=O)[C@H]([C@@H](C)O)NC1=O)C(=O)N[C@@H](CCCNC(=N)N)C(=O)N2 (single isomer, unassigned): N
CC[C@H](C)[C@@H]1NC(=O)[C@@H]2CSSC[C@H](NC(=O)[C@H](CCCNC(=N)N)NC(=O)[C@@H]3CSSC[C@H](NC1=O)C(=O)N[C@@H]([C@H](C)O)C(=O)N[C@@H](CCCNC(=N)N)C(=O)NCC(=O)N[C@H](Cc1ccccc1)C(=O)N3)C(=O)N[C@@H](CC(C)C)C(=O)N[C@@H]1CSSC[C@@H](NC(=O)[C@H](C(C)C)NC(=O)CNC(=O)[C@H](CCCNC(=N)N)NC(=O)[C@H](CCCNC(=N)N)NC1=O)C(=O)N[C@@H](CCCNC(=N)N)C(=O)N2: Y

Now consider the entry below.
In: Hi, do you know how CC(C)C[C@H](NC(=O)[C@H](CCCNC(=N)N)NC(=O)CNC(=O)CNC(=O)[C@@H](N)CCCNC(=N)N)C(=O)N[C@H]1CSSC[C@@H](C(=O)N[C@H](C(=O)NCC(=O)N[C@@H](CCCNC(=N)N)C(N)=O)C(C)C)NC(=O)[C@H](C(C)C)NC(=O)[C@@H]2CSSC[C@H](NC(=O)[C@H](Cc3ccc(O)cc3)NC1=O)C(=O)N[C@@H](CCCNC(=N)N)C(=O)N[C@@H](CCCNC(=N)N)C(=O)N[C@@H](CCCNC(=N)N)C(=O)N[C@@H](Cc1ccccc1)C(=O)N2 came out in this test?
Out: Y

----------
Experiment description: Toxicity in human Erythrocyte assessed as hemolysis at 100 ug/ml in presence of 10% serum
Assay type: cell-based
Where a SMILES comes first, the peptide text is derived from it. Bridges are numbered along the chain shown (N, C = ends).
Measurement name: Activity

CC[C@H](C)[C@@H]1NC(=O)C2CSSCC(NC(=O)[C@H](CCCNC(=N)N)NC(=O)[C@@H]3CSSC[C@H](NC1=O)C(=O)N[C@@H]([C@@H](C)O)C(=O)N[C@@H](CCCNC(=N)N)C(=O)NCC(=O)N[C@@H](Cc1ccccc1)C(=O)N3)C(=O)N[C@@H]([C@@H](C)CC)C(=O)N[C@H]1CSSC[C@H](NC(=O)[C@H](Cc3ccccc3)NC(=O)CNC(=O)[C@H](CCCNC(=N)N)NC(=O)[C@H]([C@@H](C)O)NC1=O)C(=O)N[C@@H](CCCNC(=N)N)C(=O)N2 (single isomer, unassigned): Non-toxic
CC(C)C[C@H](NC(=O)[C@H](CCCNC(=N)N)NC(=O)CNC(=O)CNC(=O)[C@@H](N)CCCNC(=N)N)C(=O)N[C@H]1CSSC[C@@H](C(=O)N[C@H](C(=O)NCC(=O)N[C@@H](CCCNC(=N)N)C(N)=O)C(C)C)NC(=O)[C@H](C(C)C)NC(=O)[C@@H]2CSSC[C@H](NC(=O)[C@H](Cc3ccc(O)cc3)NC1=O)C(=O)N[C@@H](CCCNC(=N)N)C(=O)N[C@@H](CCCNC(=N)N)C(=O)N[C@@H](CCCNC(=N)N)C(=O)N[C@@H](Cc1ccccc1)C(=O)N2: Toxic
CC(C)C[C@@H]1NC(=O)[C@@H]2CSSC[C@H](NC(=O)[C@H](CCCNC(=N)N)NC(=O)[C@@H]3CSSC[C@H](NC1=O)C(=O)N[C@@H](CCCNC(=N)N)C(=O)N[C@@H](CCCNC(=N)N)C(=O)NCC(=O)N[C@@H](C(C)C)C(=O)N3)C(=O)N[C@@H](CC(C)C)C(=O)N[C@H]1CSSC[C@H](NC(=O)[C@H](C(C)C)NC(=O)CNC(=O)[C@H](CCCNC(=N)N)NC(=O)[C@H](CCCNC(=N)N)NC1=O)C(=O)N[C@@H](CCCNC(=N)N)C(=O)N2 (cyclo(CLCRRGVCRCLCRRGVCR); disulfide 1-10, 3-8, 12-17): Non-toxic

----------
Tested on: Staphylococcus aureus
Experiment description: Microbicidal activity against Staphylococcus aureus 502a
Assay type: functional
Measurement name: MMC

The reported MMC of the molecule CC(C)C[C@H](NC(=O)[C@H](CCCNC(=N)N)NC(=O)CNC(=O)CNC(=O)[C@@H](N)CCCNC(=N)N)C(=O)N[C@H]1CSSC[C@@H](C(=O)N[C@H](C(=O)NCC(=O)N[C@@H](CCCNC(=N)N)C(N)=O)C(C)C)NC(=O)[C@H](C(C)C)NC(=O)[C@@H]2CSSC[C@H](NC(=O)[C@H](Cc3ccc(O)cc3)NC1=O)C(=O)N[C@@H](CCCNC(=N)N)C(=O)N[C@@H](CCCNC(=N)N)C(=O)N[C@@H](CCCNC(=N)N)C(=O)N[C@@H](Cc1ccccc1)C(=O)N2 was 0.4 µg/mL

----------
System: Staphylococcus aureus
Experiment description: Microbicidal activity against Staphylococcus aureus 502a using 10 mM sodium phosphate buffer in presence of 154 mM NaCl
Type: functional, organism-based
Calls of active or inactive are those of the source. The calls are words filed in the database; no cut-off is given here. Where a SMILES comes first, the peptide text is derived from it. Bridges are numbered along the chain shown (N, C = ends).
Measurement name: Activity

CC(C)C[C@@H]1NC(=O)[C@@H]2CSSC[C@H](NC(=O)[C@H](CCCNC(=N)N)NC(=O)[C@@H]3CSSC[C@H](NC1=O)C(=O)N[C@@H](CCCNC(=N)N)C(=O)N[C@@H](CCCNC(=N)N)C(=O)NCC(=O)N[C@@H](C(C)C)C(=O)N3)C(=O)N[C@@H](CC(C)C)C(=O)N[C@H]1CSSC[C@H](NC(=O)[C@H](C(C)C)NC(=O)CNC(=O)[C@H](CCCNC(=N)N)NC(=O)[C@H](CCCNC(=N)N)NC1=O)C(=O)N[C@@H](CCCNC(=N)N)C(=O)N2 (cyclo(CLCRRGVCRCLCRRGVCR); disulfide 1-10, 3-8, 12-17): Active
CC(C)C[C@H](NC(=O)[C@H](CCCNC(=N)N)NC(=O)CNC(=O)CNC(=O)[C@@H](N)CCCNC(=N)N)C(=O)N[C@H]1CSSC[C@@H](C(=O)N[C@H](C(=O)NCC(=O)N[C@@H](CCCNC(=N)N)C(N)=O)C(C)C)NC(=O)[C@H](C(C)C)NC(=O)[C@@H]2CSSC[C@H](NC(=O)[C@H](Cc3ccc(O)cc3)NC1=O)C(=O)N[C@@H](CCCNC(=N)N)C(=O)N[C@@H](CCCNC(=N)N)C(=O)N[C@@H](CCCNC(=N)N)C(=O)N[C@@H](Cc1ccccc1)C(=O)N2: Active
